Target: Carboxypeptidase Y (Saccharomyces cerevisiae)
Construct: purchased Aldrich
Sequence (P00729 112-532): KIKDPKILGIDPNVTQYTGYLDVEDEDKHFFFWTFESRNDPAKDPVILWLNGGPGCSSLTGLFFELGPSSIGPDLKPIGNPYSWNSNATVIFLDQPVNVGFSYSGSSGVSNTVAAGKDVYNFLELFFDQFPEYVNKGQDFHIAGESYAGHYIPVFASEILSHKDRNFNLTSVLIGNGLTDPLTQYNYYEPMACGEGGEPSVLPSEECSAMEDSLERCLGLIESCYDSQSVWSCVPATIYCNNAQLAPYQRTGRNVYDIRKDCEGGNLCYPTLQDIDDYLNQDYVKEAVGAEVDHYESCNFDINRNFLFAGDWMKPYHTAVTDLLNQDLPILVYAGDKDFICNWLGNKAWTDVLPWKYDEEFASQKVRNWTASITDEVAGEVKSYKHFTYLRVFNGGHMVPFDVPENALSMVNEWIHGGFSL
Test: Carboxypeptidase Y experiment (31P NMR)
Format: in vitro ADME
Conditions: yeast (Saccharomyces cerevisiae), Carboxypeptidase Y in Trizma buffer / acetone d6; acetone d6 / Trizma buffer pH 7.6; read-out: half-life in the presence of Carboxypeptidase Y
measured_attribute: half-life
Give the number first and the unit second.

Report half-life, nothing else, for this molecule: CCCCCCCCc1ccc(CCC(N)(CO)COP(=O)(N[C@@H](C)C(=O)OCCCCC)Oc2ccc(OC)cc2)cc1 (stereo partly shown) 2110 min
